meta.source: patent US20250136607A1

Catalogue of compounds with associated IC50
Molecular target: Protein arginine deiminase 4 (PAD4) (Homo sapiens, UniProt Q9UM07)
Sequence (Q9UM07 whole entry): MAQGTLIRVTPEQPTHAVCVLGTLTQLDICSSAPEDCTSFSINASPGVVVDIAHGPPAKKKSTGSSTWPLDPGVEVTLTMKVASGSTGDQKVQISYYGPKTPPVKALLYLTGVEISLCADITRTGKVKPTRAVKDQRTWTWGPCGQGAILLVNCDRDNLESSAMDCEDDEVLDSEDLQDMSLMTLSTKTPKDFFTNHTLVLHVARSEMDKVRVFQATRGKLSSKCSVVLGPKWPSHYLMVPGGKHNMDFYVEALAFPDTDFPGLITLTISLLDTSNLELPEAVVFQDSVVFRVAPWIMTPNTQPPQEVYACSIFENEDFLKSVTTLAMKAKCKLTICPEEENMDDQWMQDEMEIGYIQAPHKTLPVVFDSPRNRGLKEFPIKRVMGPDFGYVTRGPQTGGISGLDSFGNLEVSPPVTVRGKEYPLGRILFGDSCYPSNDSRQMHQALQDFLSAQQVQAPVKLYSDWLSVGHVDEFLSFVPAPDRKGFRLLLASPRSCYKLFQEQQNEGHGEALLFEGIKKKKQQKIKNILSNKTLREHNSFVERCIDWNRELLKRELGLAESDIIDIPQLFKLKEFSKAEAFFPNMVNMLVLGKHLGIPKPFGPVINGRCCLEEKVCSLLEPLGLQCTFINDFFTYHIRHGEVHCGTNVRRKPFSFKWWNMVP
Assay: PAD4 ammonia release assay
Format: biochemical
Conditions: PAD4 ammonia release assay, BAEE substrate, 60 min at RT; read-out: Average IC50 Abs

Consider the worked cases shown below.
INSERT INTO assay_data (compound, result) VALUES
  ('CCC1CNc2cccc3cc(-c4nn5cc(C(=O)N6C[C@H]7CC[C@@H]6[C@@H]7N)cc(F)c5c4C)n1c23 (stereo partly shown)', '100 to 500 nM'),
  ('CCC1CN(CCCO)c2cccc3cc(-c4nc5cc(C(=O)N6C[C@H]7CC[C@@H]6[C@@H]7N)cc(F)c5n4CC4CC4)n1c23 (stereo partly shown)', '100 to 500 nM'),
  ('COc1cc(C(=O)N2CCC[C@@H](N)C2)cc2nc(-c3cc4cccc5c4n3CCN5Cc3ccccc3)n(C)c12', '> 5000 nM'),
  ('CC[C@@H]1[C@H](C)Nc2cccc3cc(-c4nc5cc(C(=O)N6C[C@H]7CC[C@@H]6[C@@H]7N)cc(F)c5n4C)n1c23 (single isomer, unassigned)', '> 5000 nM'),
  ('Cn1c(-c2cc3ccn4ccnc4c3n2CC2CC2)nc2cc(C(=O)N3C[C@H]4CC[C@@H]3[C@@H]4N)cc(F)c21', '100 to 500 nM'),
  ('CCC1C(=O)Nc2cccc3cc(-c4nc5cc(C(=O)N6C[C@H]7CC[C@@H]6[C@@H]7N)cc(F)c5n4C)n1c23 (stereo partly shown)', '100 to 500 nM');

As a next step, examine the compound that follows.
Ask: Find the measured IC50 of Cn1c(-c2cc3cccc4c3n2[C@H](C2CC2)CN4CCCO)nc2cc(C(=O)N3C[C@H]4CC[C@@H]3[C@@H]4N)cc(F)c21 (single isomer, unassigned) with Protein arginine deiminase 4 (PAD4) (Homo sapiens, UniProt Q9UM07) as test system.
Result: 500 to 5000 nM
